Assay: Cellular viability qHTS for adrenocortical cancer (ACC) cell line SW-13 (AID 1963989);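 further: cells grown in serum-free medium with ITS supplement; on the % scale 0 is the no-effect control and ±100 the full control effect; nearly all actives have a fitted effect of over 65% in size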
Settings: SW-13 ACC cells viability, CellTiter-Glo, 48 h; active compounds read low
From the text: PI: Naris Nilubol, MD Surgical Oncology Program, National Cancer Institute (NCI) National Institute of Health (NIH), Bethesda, Maryland Adrenocortical cancer (ACC) is a rare malignancy with poor survival outcomes and few treatment options. Currently, mitotane is the only FDA-approved therapy for ACC. […] Through a quantitative high-throughput drug screen (qHTS), we identified auranofin (AF), a thioredoxin reductase (TXNRD) inhibitor, as a promising candidate drug. […]
Inconclusive results are not listed.
Measured activity (max response) accompanies every entry in the list below.
Give the number; % is assumed, so skip it.

Worked examples follow.
Cc1ncc([N+](=O)[O-])n1CC(C)O (configuration not stated)    -11
CC1=CC(=O)c2ccccc2C1=O    13.5
O=C1c2cccc(O)c2C(=O)c2c(O)cccc21    1.51

// recorded activity (max response) for CCN1CCC[C@H]1CNC(=O)c1c(O)c(Cl)cc(Cl)c1OC : 8.2

activity (max response) measured on CCn1c(=O)c2c(nc(C=Cc3ccc(OC)c(OC)c3)n2C)n(CC)c1=O = 1.29

activity (max response) in this record for Cc1onc(-c2ccccc2Cl)c1C(=O)N[C@@H]1C(=O)N2[C@@H]1SC(C)(C)[C@@H]2C(=O)O : 0.896

###

Assay: Quantitative highthroughput screen to assess conditional lethalithy of P12 Ichikawa cells grown in RPMI1640 with dialyzed fetal bovine serum (RPMI+ds) (AID 1963880); further: nearly all actives have a fitted effect of over 35% in size;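 on viability: 100% = DMSO wells and 0% = empty wells on each plate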
Conditions: ATP luminescence, 48 h; P12-Ichikawa viability; series mostly up to 45.8 µM
Records with an inconclusive call do not appear. Activity calls are given as the source filed them. The call rests on the fitted dose curve; in most records, active means well fitted cell-killing curve with a large enough effect; inconclusive means small, poorly fitted or top-dose-only effect; inactive means flat fitted curve, though single readings scatter.
Outcomes you can answer with include only these: True (active), False (inactive)

Use the examples below as a reference point.
Cc1cc2c(s1)Nc1ccccc1N=C2N1CCN(C)CC1    False
CC(=O)NCCC(=O)N[C@@H](CCC(N)=O)C(=O)N[C@@H](CO)C(=O)N[C@@H](CCC(N)=O)C(=O)N[C@@H](CCC(N)=O)C(=O)N[C@H](C(=O)N[C@@H](Cc1ccccc1)C(=O)N[C@]1(C)CCCCCCC=CCCC[C@@](C)(C(=O)N[C@@H](CCC(N)=O)C(=O)N[C@@H](CC(N)=O)C(N)=O)NC(=O)[C@H](CC(C)C)NC(=O)[C@H](CC(C)C)NC(=O)[C@@H](CCCNC(=N)N)NC(=O)[C@H](Cc2c[nH]c3ccccc23)NC(=O)[C@H](CC(C)C)NC(=O)[C@H](CC(N)=O)NC1=O)[C@H](C)O    False
Clc1ccc(-c2nc3sccn3c2C=NOCc2ccc(Cl)c(Cl)c2)cc1    False
CCN(c1ccccc1)c1cc(NC)[n+](C)c(C)n1    False
O=C1C(CCC(O)c2ccc(F)cc2)C(c2ccc(O)cc2)N1c1ccc(F)cc1 (centres undefined)    False
Cn1cc(-c2ccncc2)c(-c2ccc(OCc3ccc4ccccc4n3)cc2)n1    True
CC1COc2c(N3CCN(C)CC3)c(F)cc3c(=O)c(C(=O)O)cn1c23 (centres undefined)    False
CC1=CC(=O)c2ccccc2C1=O    False

Query :: Which outcome was entered for the compound COc1ccc(C2CC(c3ccccc3)=NN2c2ccc(S(N)(=O)=O)cc2)cc1 (centres undefined) in this test?
Result :: True

Query :: Each compound tested received a call. Report the one for Nc1nc2c(c(=O)[nH]1)N(C=O)[C@H](CNc1ccc(C(=O)N[C@@H](CCC(=O)O)C(=O)O)cc1)CN2 .
Result :: True

Query :: Test call, this compound: C[C@@H]1CCO[C@H]2Cn3cc(C(=O)NCc4ccc(F)cc4F)c(=O)c(O)c3C(=O)N12
Result :: False

Query :: What outcome does the record of this test show for N=c1ccn2c(n1)O[C@H]1[C@@H](O)[C@@H](CO)O[C@H]12 ?
Result :: True

Query :: Per the records of this test, what outcome belongs to C[C@@H]1[C@H](C)CC[C@]2(C(=O)O)CC[C@]3(C)C(=CC[C@@H]4[C@@]5(C)CC[C@H](O)C(C)(C)[C@H]5CC[C@]43C)[C@@H]12 ?
Result :: False

Query :: Fill in: this test's call for COc1ccc(C=CC(=O)Nc2ccccc2C(=O)O)cc1OC is ___
Result :: False
